Values were extracted from PubChem BioAssay AID1963870.

- Test system: 292921-168-R-J2-PDC KRAS tumor spheroid viability
- Experimental protocol: Anticancer human tumor 292921-168-R-J2-PDC patient-derived pancreatic carcinoma cell line growth inhibition [KRAS2]; active = viability on the fitted dose curve at most 10% of control; inactive = the rest
- Test settings: second compound 0.1 µM; first compound 10 µM; spheroids with HUVEC and MSC
Possible outcomes: 1 for active, 0 for inactive

- Compound: "COc1cc2nccc(Oc3ccc(NC(=O)C4(C(=O)Nc5ccc(F)cc5)CC4)cc3)c2cc1OC + CNCc1ccccc1-c1csc(C(C)Nc2nc(C)nc3cc(OC)c(OC)cc23)c1"
  Assigned label: 0
- Compound: "CC1(C)CCC(CN2CCN(c3ccc(C(=O)NS(=O)(=O)c4ccc(NCC5CCOCC5)c([N+](=O)[O-])c4)c(Oc4cnc5[nH]ccc5c4)c3)CC2)=C(c2ccc(Cl)cc2)C1 + CNCc1ccccc1-c1csc(C(C)Nc2nc(C)nc3cc(OC)c(OC)cc23)c1"
  Assigned label: 1
- Compound: "CC1OCC2(CCN(c3cnc(Sc4ccnc(N)c4Cl)c(N)n3)CC2)C1N (stereo not given) + CNCc1ccccc1-c1csc(C(C)Nc2nc(C)nc3cc(OC)c(OC)cc23)c1"
  Assigned label: 0
- Compound: "COc1cc2nccc(Oc3ccc(NC(=O)C4(C(=O)Nc5ccc(F)cc5)CC4)cc3)c2cc1OC + C=CC(=O)N1CCN(c2nc(=O)n(-c3c(C)ccnc3C(C)C)c3nc(-c4c(O)cccc4F)c(F)cc23)C(C)C1"
  Assigned label: 0
- Compound: "Cn1nccc1Nc1nccc(-c2cc3c(s2)C(C)(C)N(CCN2CCOCC2)C3=O)n1 + COc1cc2nc(C)nc(NC(C)c3cc(N)cc(C(F)(F)F)c3)c2cc1OC1CCOC1"
  Assigned label: 1

====

- System: 292921-168-R-J2-PDC KRAS tumor spheroid viability
- Experimental protocol: Anticancer human tumor 292921-168-R-J2-PDC cell line growth inhibition [KRAS2]; active means viability on the fitted dose curve at most 10% of control; inactive means the rest;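 also: drug exposure lasted seven days after spheroids formed for three days; percent of DMSO vehicle control viability which is 100%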
- Test settings: second compound 3.16 µM; first compound 0.1 µM; spheroids with HUVEC and MSC
Possible outcomes: active, inactive

- Compound: "CC(C)NCC(C(=O)N1CCN(c2ncnc3c2C(C)CC3O)CC1)c1ccc(Cl)cc1 (stereo not drawn) + C=CC(=O)N1CCN(c2nc(=O)n(-c3c(C)ccnc3C(C)C)c3nc(-c4c(O)cccc4F)c(F)cc23)C(C)C1"
  Assigned label: "inactive"
- Compound: "CC1(C)CCC(CN2CCN(c3ccc(C(=O)NS(=O)(=O)c4ccc(NCC5CCOCC5)c([N+](=O)[O-])c4)c(Oc4cnc5[nH]ccc5c4)c3)CC2)=C(c2ccc(Cl)cc2)C1 + CC1OCC2(CCN(c3cnc(Sc4ccnc(N)c4Cl)c(N)n3)CC2)C1N"
  Assigned label: "inactive"
- Compound: "O=C(c1cc(Cc2n[nH]c(=O)c3ccccc23)ccc1F)N1CCN(C(=O)C2CC2)CC1 + CNCc1ccccc1-c1csc(C(C)Nc2nc(C)nc3cc(OC)c(OC)cc23)c1"
  Assigned label: "active"

====

Measured viability, T/C accompanies every entry in the list below.
- Test system: 292921-168-R-J2-PDC KRAS tumor spheroid viability
- Experimental protocol: Anticancer human tumor 292921-168-R-J2-PDC cell line growth inhibition [KRAS2];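 also: drug exposure lasted seven days after spheroids formed for three days; percent of DMSO vehicle control viability which is 100%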
- Test settings: second compound 0.1 µM; first compound 0.316 µM; active compounds read low; spheroids with HUVEC and MSC

- Compound: "CC1(C)CCC(CN2CCN(c3ccc(C(=O)NS(=O)(=O)c4ccc(NCC5CCOCC5)c([N+](=O)[O-])c4)c(Oc4cnc5[nH]ccc5c4)c3)CC2)=C(c2ccc(Cl)cc2)C1 + COc1cc2nc(C)nc(NC(C)c3cc(N)cc(C(F)(F)F)c3)c2cc1OC1CCOC1"
  Result units: "%"
  viability, T/C: 91.9
- Compound: "CC(C)NCC(C(=O)N1CCN(c2ncnc3c2C(C)CC3O)CC1)c1ccc(Cl)cc1 (stereo not given) + C=CC(=O)N1CCN(c2nc(=O)n(-c3c(C)ccnc3C(C)C)c3nc(-c4c(O)cccc4F)c(F)cc23)C(C)C1"
  Result units: "%"
  viability, T/C: 88.1
- Compound: "Cn1nccc1Nc1nccc(-c2cc3c(s2)C(C)(C)N(CCN2CCOCC2)C3=O)n1 + CNCc1ccccc1-c1csc(C(C)Nc2nc(C)nc3cc(OC)c(OC)cc23)c1"
  Result units: "%"
  viability, T/C: 19
- Compound: "O=C(c1cc(Cc2n[nH]c(=O)c3ccccc23)ccc1F)N1CCN(C(=O)C2CC2)CC1 + C=CC(=O)N1CCN(c2nc(OCC3CCCN3C)nc3c2CCN(c2cccc4cccc(C)c24)C3)CC1CC#N"
  Result units: "%"
  viability, T/C: 84.5
- Compound: "CC(=O)OC12COC1CC(O)C1(C)C(=O)C(O)C3=C(C)C(OC(=O)C(O)C(NC(=O)OC(C)(C)C)c4ccccc4)CC(O)(C(OC(=O)c4ccccc4)C21)C3(C)C (stereo not given) + C=CC(=O)N1CCN(c2nc(OCC3CCCN3C)nc3c2CCN(c2cccc4cccc(C)c24)C3)CC1CC#N"
  Result units: "%"
  viability, T/C: 9.08

====

- Tested on: 292921-168-R-J2-PDC KRAS tumor spheroid viability
- Experimental protocol: Anticancer human tumor 292921-168-R-J2-PDC cell line growth inhibition [KRAS2]; active = viability on the fitted dose curve at most 10% of control; inactive = the rest;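 also: drug exposure lasted seven days after spheroids formed for three days; percent of DMSO vehicle control viability which is 100%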
- Test settings: second compound 10 µM; first compound 0.1 µM; spheroids with HUVEC and MSC
- Excerpt: Multicellular complex tumor spheroid response to RAS pathway inhibitors in combination with a targeted agents in patient-derived cell lines with oncogenic KRAS variants from multiple cancer types A high-throughput screen of multi-cell type tumor spheroids was designed to identify active combinations of targeted small molecules and KRAS pathway inhibitors. […] Compounds. […] If the clinical Cmax for an agent had not been determined, the highest concentration tested was 10 microM. […]
Outcome codes: true = active, false = inactive

- Compound: "COc1cc(Nc2ncc3c(n2)-c2ccc(Cl)cc2C(c2c(F)cccc2OC)=NC3)ccc1C(=O)O + CNCc1ccccc1-c1csc(C(C)Nc2nc(C)nc3cc(OC)c(OC)cc23)c1"
  Assigned label: "true"
- Compound: "CC(C)NCC(C(=O)N1CCN(c2ncnc3c2C(C)CC3O)CC1)c1ccc(Cl)cc1 (stereo unspecified) + COc1cc2nc(C)nc(NC(C)c3cc(N)cc(C(F)(F)F)c3)c2cc1OC1CCOC1"
  Assigned label: "false"
- Compound: "CC(C)n1nc(-c2ccc3oc(N)nc3c2)c2c(N)ncnc21 + C=CC(=O)N1CCN(c2nc(=O)n(-c3c(C)ccnc3C(C)C)c3nc(-c4c(O)cccc4F)c(F)cc23)C(C)C1"
  Assigned label: "false"
- Compound: "Cn1nccc1Nc1nccc(-c2cc3c(s2)C(C)(C)N(CCN2CCOCC2)C3=O)n1 + COc1cc2nc(C)nc(NC(C)c3cc(N)cc(C(F)(F)F)c3)c2cc1OC1CCOC1"
  Assigned label: "false"
- Compound: "O=C(c1cc(Cc2n[nH]c(=O)c3ccccc23)ccc1F)N1CCN(C(=O)C2CC2)CC1 + COc1cc2nc(C)nc(NC(C)c3cc(N)cc(C(F)(F)F)c3)c2cc1OC1CCOC1"
  Assigned label: "false"
- Compound: "CC(C)NCC(C(=O)N1CCN(c2ncnc3c2C(C)CC3O)CC1)c1ccc(Cl)cc1 (stereo unspecified) + CNCc1ccccc1-c1csc(C(C)Nc2nc(C)nc3cc(OC)c(OC)cc23)c1"
  Assigned label: "true"
- Compound: "CN(C)C/C=C/C(=O)Nc1cc2c(Nc3ccc(F)c(Cl)c3)ncnc2cc1O[C@H]1CCOC1 + CNCc1ccccc1-c1csc(C(C)Nc2nc(C)nc3cc(OC)c(OC)cc23)c1"
  Assigned label: "true"
- Compound: "COc1cc(Nc2ncc3c(n2)-c2ccc(Cl)cc2C(c2c(F)cccc2OC)=NC3)ccc1C(=O)O + C=CC(=O)N1CCN(c2nc(=O)n(-c3c(C)ccnc3C(C)C)c3nc(-c4c(O)cccc4F)c(F)cc23)C(C)C1"
  Assigned label: "false"
- Compound: "CC(C)n1nc(-c2ccc3oc(N)nc3c2)c2c(N)ncnc21 + CNCc1ccccc1-c1csc(C(C)Nc2nc(C)nc3cc(OC)c(OC)cc23)c1"
  Assigned label: "true"
- Compound: "COC(=O)c1ccc2c(C(=Nc3ccc(N(C)C(=O)CN4CCN(C)CC4)cc3)c3ccccc3)c(O)[nH]c2c1 + CNCc1ccccc1-c1csc(C(C)Nc2nc(C)nc3cc(OC)c(OC)cc23)c1"
  Assigned label: "true"
- Compound: "CC1(C)CCC(CN2CCN(c3ccc(C(=O)NS(=O)(=O)c4ccc(NCC5CCOCC5)c([N+](=O)[O-])c4)c(Oc4cnc5[nH]ccc5c4)c3)CC2)=C(c2ccc(Cl)cc2)C1 + C=CC(=O)N1CCN(c2nc(=O)n(-c3c(C)ccnc3C(C)C)c3nc(-c4c(O)cccc4F)c(F)cc23)C(C)C1"
  Assigned label: "false"

====

- Test system: 292921-168-R-J2-PDC KRAS tumor spheroid viability
- Experimental protocol: Anticancer human tumor 292921-168-R-J2-PDC cell line growth inhibition [KRAS2];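 also: drug exposure lasted seven days after spheroids formed for three days; percent of DMSO vehicle control viability which is 100%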
- Test settings: second compound 0.316 µM; first compound 0.316 µM; active compounds read low; spheroids with HUVEC and MSC
Values of viability, T/C strictly less than 70% map to criterion met, and values of at least 70% map to criterion not met.

- Molecule: "COc1cc(Nc2ncc3c(n2)-c2ccc(Cl)cc2C(c2c(F)cccc2OC)=NC3)ccc1C(=O)O + CNCc1ccccc1-c1csc(C(C)Nc2nc(C)nc3cc(OC)c(OC)cc23)c1"
  Assigned label: "criterion met"
- Molecule: "COC(=O)c1ccc2c(C(=Nc3ccc(N(C)C(=O)CN4CCN(C)CC4)cc3)c3ccccc3)c(O)[nH]c2c1 + COc1cc2nc(C)nc(NC(C)c3cc(N)cc(C(F)(F)F)c3)c2cc1OC1CCOC1"
  Assigned label: "criterion met"
- Molecule: "CC1COCCN1c1cc(-c2ccnn2C)c2ccnc(-c3ccn[nH]3)c2n1 (stereo not given) + CNCc1ccccc1-c1csc(C(C)Nc2nc(C)nc3cc(OC)c(OC)cc23)c1"
  Assigned label: "criterion met"
- Molecule: "CCNC(=O)CC1N=C(c2ccc(Cl)cc2)c2cc(OC)ccc2-n2c(C)nnc21 (stereo not given) + C=CC(=O)N1CCN(c2nc(OCC3CCCN3C)nc3c2CCN(c2cccc4cccc(C)c24)C3)CC1CC#N"
  Assigned label: "criterion met"
- Molecule: "Cn1nccc1Nc1nccc(-c2cc3c(s2)C(C)(C)N(CCN2CCOCC2)C3=O)n1 + C=CC(=O)N1CCN(c2nc(=O)n(-c3c(C)ccnc3C(C)C)c3nc(-c4c(O)cccc4F)c(F)cc23)C(C)C1"
  Assigned label: "criterion met"
- Molecule: "COc1cc2nccc(Oc3ccc(NC(=O)C4(C(=O)Nc5ccc(F)cc5)CC4)cc3)c2cc1OC + C=CC(=O)N1CCN(c2nc(OCC3CCCN3C)nc3c2CCN(c2cccc4cccc(C)c24)C3)CC1CC#N"
  Assigned label: "criterion not met"
- Molecule: "CC(=O)OC12COC1CC(O)C1(C)C(=O)C(O)C3=C(C)C(OC(=O)C(O)C(NC(=O)OC(C)(C)C)c4ccccc4)CC(O)(C(OC(=O)c4ccccc4)C21)C3(C)C (stereo not given) + C=CC(=O)N1CCN(c2nc(=O)n(-c3c(C)ccnc3C(C)C)c3nc(-c4c(O)cccc4F)c(F)cc23)C(C)C1"
  Assigned label: "criterion met"
- Molecule: "COC(=O)c1ccc2c(C(=Nc3ccc(N(C)C(=O)CN4CCN(C)CC4)cc3)c3ccccc3)c(O)[nH]c2c1 + C=CC(=O)N1CCN(c2nc(=O)n(-c3c(C)ccnc3C(C)C)c3nc(-c4c(O)cccc4F)c(F)cc23)C(C)C1"
  Assigned label: "criterion met"
- Molecule: "CC1COCCN1c1cc(-c2ccnn2C)c2ccnc(-c3ccn[nH]3)c2n1 (stereo not given) + COc1cc2nc(C)nc(NC(C)c3cc(N)cc(C(F)(F)F)c3)c2cc1OC1CCOC1"
  Assigned label: "criterion met"
- Molecule: "CC(=O)OC12COC1CC(O)C1(C)C(=O)C(O)C3=C(C)C(OC(=O)C(O)C(NC(=O)OC(C)(C)C)c4ccccc4)CC(O)(C(OC(=O)c4ccccc4)C21)C3(C)C (stereo not given) + CC1OCC2(CCN(c3cnc(Sc4ccnc(N)c4Cl)c(N)n3)CC2)C1N"
  Assigned label: "criterion met"
- Molecule: "CC1(C)CCC(CN2CCN(c3ccc(C(=O)NS(=O)(=O)c4ccc(NCC5CCOCC5)c([N+](=O)[O-])c4)c(Oc4cnc5[nH]ccc5c4)c3)CC2)=C(c2ccc(Cl)cc2)C1 + CNCc1ccccc1-c1csc(C(C)Nc2nc(C)nc3cc(OC)c(OC)cc23)c1"
  Assigned label: "criterion not met"
- Molecule: "COc1cc2nccc(Oc3ccc(NC(=O)C4(C(=O)Nc5ccc(F)cc5)CC4)cc3)c2cc1OC + CNCc1ccccc1-c1csc(C(C)Nc2nc(C)nc3cc(OC)c(OC)cc23)c1"
  Assigned label: "criterion not met"
- Molecule: "COc1cc2nccc(Oc3ccc(NC(=O)C4(C(=O)Nc5ccc(F)cc5)CC4)cc3)c2cc1OC + COc1cc2nc(C)nc(NC(C)c3cc(N)cc(C(F)(F)F)c3)c2cc1OC1CCOC1"
  Assigned label: "criterion not met"
- Molecule: "COc1cc2nccc(Oc3ccc(NC(=O)C4(C(=O)Nc5ccc(F)cc5)CC4)cc3)c2cc1OC + CC1OCC2(CCN(c3cnc(Sc4ccnc(N)c4Cl)c(N)n3)CC2)C1N"
  Assigned label: "criterion met"
- Molecule: "CC(C)NCC(C(=O)N1CCN(c2ncnc3c2C(C)CC3O)CC1)c1ccc(Cl)cc1 (stereo not given) + CNCc1ccccc1-c1csc(C(C)Nc2nc(C)nc3cc(OC)c(OC)cc23)c1"
  Assigned label: "criterion met"
